# Tested Target: recombinant human HDAC6 (Homo sapiens (Human), UniProt Q9UBN7)
# Sequence (Q9UBN7 whole entry): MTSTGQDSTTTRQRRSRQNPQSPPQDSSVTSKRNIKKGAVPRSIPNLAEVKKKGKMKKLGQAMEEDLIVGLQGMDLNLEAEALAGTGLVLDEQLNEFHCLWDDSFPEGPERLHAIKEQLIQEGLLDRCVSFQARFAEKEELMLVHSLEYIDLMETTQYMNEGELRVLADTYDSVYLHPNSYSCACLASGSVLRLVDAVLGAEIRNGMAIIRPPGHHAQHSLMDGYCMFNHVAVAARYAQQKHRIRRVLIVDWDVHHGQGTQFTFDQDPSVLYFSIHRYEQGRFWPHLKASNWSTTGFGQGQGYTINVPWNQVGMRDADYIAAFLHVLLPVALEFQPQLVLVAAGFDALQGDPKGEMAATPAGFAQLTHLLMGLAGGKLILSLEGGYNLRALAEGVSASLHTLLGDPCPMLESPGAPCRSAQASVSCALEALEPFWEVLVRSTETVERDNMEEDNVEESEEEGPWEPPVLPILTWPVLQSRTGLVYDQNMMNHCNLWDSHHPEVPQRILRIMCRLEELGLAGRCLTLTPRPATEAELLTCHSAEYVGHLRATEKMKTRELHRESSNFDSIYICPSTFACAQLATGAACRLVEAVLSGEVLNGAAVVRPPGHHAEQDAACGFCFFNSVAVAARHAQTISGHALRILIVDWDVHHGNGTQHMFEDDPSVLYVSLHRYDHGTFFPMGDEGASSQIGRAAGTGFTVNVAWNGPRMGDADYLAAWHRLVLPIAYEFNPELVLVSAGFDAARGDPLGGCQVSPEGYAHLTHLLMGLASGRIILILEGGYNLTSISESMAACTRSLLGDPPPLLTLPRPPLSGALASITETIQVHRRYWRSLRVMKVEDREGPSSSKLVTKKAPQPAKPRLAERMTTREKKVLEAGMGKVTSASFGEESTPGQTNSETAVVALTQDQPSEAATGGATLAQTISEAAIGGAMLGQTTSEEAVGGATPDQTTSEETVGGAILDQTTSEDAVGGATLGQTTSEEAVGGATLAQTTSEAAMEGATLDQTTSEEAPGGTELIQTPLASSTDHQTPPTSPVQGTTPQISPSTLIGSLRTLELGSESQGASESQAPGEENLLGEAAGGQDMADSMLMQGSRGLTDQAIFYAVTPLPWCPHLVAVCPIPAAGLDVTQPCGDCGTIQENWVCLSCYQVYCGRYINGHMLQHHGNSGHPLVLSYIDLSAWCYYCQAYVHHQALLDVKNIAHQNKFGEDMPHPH
# Protocol Details: Enzymatic screening, HDAC6 inhibition (fluorogenic FdL_G substrate)
IC50 overview
Quantity Name: IC50 (nM)

compound=Nc1ccc(-c2noc(Cc3ccc(-c4nnc(C(F)F)o4)c(F)c3)n2)cc1 tested_target="recombinant human HDAC6 (Homo sapiens (Human), UniProt Q9UBN7)" numeric_result=80
compound=O=C1NCc2ccc(-c3nnn(Cc4ccc(-c5nnc(C(F)F)o5)c(F)c4)n3)cc21 tested_target="recombinant human HDAC6 (Homo sapiens (Human), UniProt Q9UBN7)" numeric_result=38
compound=Fc1cc(Cc2nc(-c3ccc(NC4=NCCN4)cc3)no2)ccc1-c1nnc(C(F)F)o1 tested_target="recombinant human HDAC6 (Homo sapiens (Human), UniProt Q9UBN7)" numeric_result=13
compound=Nc1cncc(-c2nnn(Cc3ccc(-c4nnc(C(F)F)o4)cc3)n2)c1 tested_target="recombinant human HDAC6 (Homo sapiens (Human), UniProt Q9UBN7)" numeric_result=34
compound=Cn1c(Sc2ccc(-c3nnc(C(F)F)o3)cc2)nnc1-c1ccc(N)nc1 tested_target="recombinant human HDAC6 (Homo sapiens (Human), UniProt Q9UBN7)" numeric_result=491
compound=CN1CCN(c2ccc(-c3nnn(Cc4ccc(-c5nnc(C(F)F)o5)cc4)n3)cn2)CC1 tested_target="recombinant human HDAC6 (Homo sapiens (Human), UniProt Q9UBN7)" numeric_result=147
compound=Nc1cncc(-c2cn(Cc3c(F)cc(-c4nnc(C(F)F)o4)cc3F)nn2)c1 tested_target="recombinant human HDAC6 (Homo sapiens (Human), UniProt Q9UBN7)" numeric_result=31
compound=O=C(Nc1cccc(-c2cn(Cc3ccc(-c4nnc(C(F)F)o4)cn3)nn2)c1)N1CCOCC1 tested_target="recombinant human HDAC6 (Homo sapiens (Human), UniProt Q9UBN7)" numeric_result=13
compound=FC(F)c1nnc(-c2ccc(Cn3nnc(-c4cccc5cnccc45)n3)cc2)o1 tested_target="recombinant human HDAC6 (Homo sapiens (Human), UniProt Q9UBN7)" numeric_result=66
compound=O=C1Nc2ccc(-c3cn(Cc4ccc(-c5nnc(C(F)F)o5)cc4)nn3)cc2C12CCNCC2 tested_target="recombinant human HDAC6 (Homo sapiens (Human), UniProt Q9UBN7)" numeric_result=20
compound=CN1CCN(C(=O)Nc2cccc(-c3cn(Cc4ccc(-c5nnc(C(F)F)o5)cn4)nn3)c2)CC1 tested_target="recombinant human HDAC6 (Homo sapiens (Human), UniProt Q9UBN7)" numeric_result=22
compound=CNc1ccc2cc(-c3nnn(Cc4cc(F)c(-c5nnc(C(F)F)o5)cc4F)n3)ccc2n1 tested_target="recombinant human HDAC6 (Homo sapiens (Human), UniProt Q9UBN7)" numeric_result=100
compound=[2H]C([2H])(c1ccc(-c2nnc(C(F)F)o2)c(F)c1F)n1cc(-c2ccc(N)nc2)nn1 tested_target="recombinant human HDAC6 (Homo sapiens (Human), UniProt Q9UBN7)" numeric_result=30
compound=Nc1ccc(-c2noc(C(F)(F)c3ccc(-c4nnc(C(F)F)o4)cc3)n2)cn1 tested_target="recombinant human HDAC6 (Homo sapiens (Human), UniProt Q9UBN7)" numeric_result=234
compound=Nc1ncnc2sc(-c3cn(Cc4c(F)cc(-c5nnc(C(F)F)o5)cc4F)nn3)cc12 tested_target="recombinant human HDAC6 (Homo sapiens (Human), UniProt Q9UBN7)" numeric_result=40
compound=O=C1Nc2ccc(-c3nnn(Cc4ccc(-c5nnc(C(F)F)o5)cn4)n3)cc2NC12CCCC2 tested_target="recombinant human HDAC6 (Homo sapiens (Human), UniProt Q9UBN7)" numeric_result=9
compound=Nc1ncnc2cc(-c3cn(Cc4ccc(-c5nnc(C(F)F)o5)cc4)nn3)ccc12 tested_target="recombinant human HDAC6 (Homo sapiens (Human), UniProt Q9UBN7)" numeric_result=33
compound=C[C@@H](c1ccc(-c2nnc(C(F)F)o2)cn1)n1cc(-c2ccc(N)nc2)nn1 tested_target="recombinant human HDAC6 (Homo sapiens (Human), UniProt Q9UBN7)" numeric_result=82
compound=CNc1ncc2cc(-c3cn(Cc4ccc(-c5nnc(C(F)F)o5)cc4F)nn3)ccc2n1 tested_target="recombinant human HDAC6 (Homo sapiens (Human), UniProt Q9UBN7)" numeric_result=116
compound=NC(=O)c1cccc(-c2nnn(Cc3c(F)cc(-c4nnc(C(F)F)o4)cc3F)n2)c1 tested_target="recombinant human HDAC6 (Homo sapiens (Human), UniProt Q9UBN7)" numeric_result=23
compound="CCCCC(c1ccc(-c2nnc(C(F)F)o2)cc1)n1cc(-c2cccc(NC(=O)N3CCOCC3)c2)nn1 (centres unmarked)" tested_target="recombinant human HDAC6 (Homo sapiens (Human), UniProt Q9UBN7)" numeric_result=240
compound=FC(F)c1nnc(-c2ccc(Cn3cc(-c4ccc(NC5=NCCN5)cc4)cn3)cc2)o1 tested_target="recombinant human HDAC6 (Homo sapiens (Human), UniProt Q9UBN7)" numeric_result=15
compound=O=C(Nc1cc(-c2nnn(Cc3c(F)cc(-c4nnc(C(F)F)o4)cc3F)n2)ccc1O)N1CCOCC1 tested_target="recombinant human HDAC6 (Homo sapiens (Human), UniProt Q9UBN7)" numeric_result=37
compound="Nc1ccc(-c2cn(C(CCCN3CCCCC3)c3ccc(-c4nnc(C(F)F)o4)cc3)nn2)cn1 (centres unmarked)" tested_target="recombinant human HDAC6 (Homo sapiens (Human), UniProt Q9UBN7)" numeric_result=62
compound=COc1ccc(-c2nnn(Cc3ccc(-c4nnc(C(F)F)o4)cc3)n2)cc1 tested_target="recombinant human HDAC6 (Homo sapiens (Human), UniProt Q9UBN7)" numeric_result=122
compound=FC(F)c1nnc(-c2ccc(Cn3cc(-c4ccc5nc(Cl)[nH]c5c4)nn3)nc2)o1 tested_target="recombinant human HDAC6 (Homo sapiens (Human), UniProt Q9UBN7)" numeric_result=15
compound=CN(Cc1ccncc1)Cc1ccc(-c2nc(Cc3c(F)cc(-c4nnc(C(F)F)o4)cc3F)no2)cc1 tested_target="recombinant human HDAC6 (Homo sapiens (Human), UniProt Q9UBN7)" numeric_result=361
compound=FC(F)c1nnc(-c2ccc(Cn3cnc(-c4ccc(NC5=NCCN5)cc4)c3)cc2)o1 tested_target="recombinant human HDAC6 (Homo sapiens (Human), UniProt Q9UBN7)" numeric_result=17
compound=Nc1ccc(-c2nc(Cc3ccc(-c4nnc(C(F)F)o4)cc3)no2)cn1 tested_target="recombinant human HDAC6 (Homo sapiens (Human), UniProt Q9UBN7)" numeric_result=272
compound=O=C(Nc1cccc(-c2cn(Cc3ccc(-c4nnc(C(F)F)o4)c(F)c3)nn2)c1)N1CCOCC1 tested_target="recombinant human HDAC6 (Homo sapiens (Human), UniProt Q9UBN7)" numeric_result=29
compound=CN1CC(C(=O)Nc2cccc(-c3cn(Cc4c(F)cc(-c5nnc(C(F)F)o5)cc4F)nn3)c2)C1 tested_target="recombinant human HDAC6 (Homo sapiens (Human), UniProt Q9UBN7)" numeric_result=34
compound=CN(Cc1ccncc1)Cc1ccc(-c2cn(Cc3c(F)cc(-c4nnc(C(F)F)o4)cc3F)nn2)cc1 tested_target="recombinant human HDAC6 (Homo sapiens (Human), UniProt Q9UBN7)" numeric_result=90

meta.source: patent US20230286970A1
